experiment: gradient 5% acetonitrile 3 min, to 50% in 2 min, to 85% in 15 min, held 3 min, 100 µL/min; details: column: Zorbax Extend-C18 2.1 x 50 mm; eluents: water / acetonitrile, 0.1% formic acid
// 0 (no) strictly below 800 s in RP-LC retention time; 1 (yes) otherwise

> print(dat)
                                    compound  category
 1  Cc1nc(-c2nnc(NC(=O)Cn3cnc4c3c(=O)n(C)c(=O)n4C)o2)cs1    0 (no)
 2  Cc1cc(C)c2[nH]c3c(c(=O)c2c1)CN(CC(=O)Nc1ccccc1)CC3    0 (no)
 3  COC(=O)c1c(C)[nH]c(C(=O)N2CCC(CC(=O)N3CCCCC3)CC2)c1C    0 (no)
 4  Cc1ccc(CNC(=O)N2CCc3c(c(-c4nc(C5CC5)no4)nn3C)C2)cc1   1 (yes)
 5  Cn1nc(-c2nnc(-c3ccc(F)cc3)o2)c2c1CCN(S(=O)(=O)c1ccc(F)c(Cl)c1)C2   1 (yes)
 6  Cc1nc(C)c(C(=O)N(Cc2ccccn2)c2nc3c(Cl)cccc3s2)s1   1 (yes)
 7  COc1ccc(-c2noc(C3CCCN3C(=O)c3cc(F)cc(F)c3)n2)cc1OC (stereo not given)   1 (yes)
 8  Cc1cccc(-n2c(=O)c3sccc3n(Cc3nc(-c4ccc(C)c(C)c4)no3)c2=O)c1   1 (yes)
 9  CCOc1cccc(-c2noc(Cn3c(=O)n(-c4ccc(Cl)cc4)c(=O)c4sccc43)n2)c1   1 (yes)
10  Cc1ccc(CNC(=O)C2(C)CCCN(C(=O)Nc3cccc(Br)c3)C2)cc1 (stereo not given)   1 (yes)
11   CC(C)n1nc2c(S(=O)(=O)N3CCOCC3)cccn2c1=O    0 (no)
12  CCC(C)NC(=O)Cc1c[nH]c2ncccc12 (stereo not given)    0 (no)
13  COc1ccc(C2Cn3nnc(-c4nc(C(C)C)no4)c3CO2)cc1 (stereo not given)   1 (yes)
14  CC(=O)N1c2ccc(S(=O)(=O)N3CCCCC3)cc2CC1C(=O)N(C)Cc1ccccc1 (stereo not given)   1 (yes)
15             CN(C)c1ccc(-c2nc3ccccc3s2)cc1   1 (yes)
16  CCCCS(=O)(=O)N1CCC2(CC1)NCCCN=C2Nc1cccc(F)c1    0 (no)
17  Cc1ccnc(NC(=O)C2CCN(S(=O)(=O)c3cc(C(=O)N4CCCC4)n(C)c3)CC2)c1    0 (no)
18  Cc1cc(C)n(-c2ccc(=O)n(CCNC(=O)c3cncc(Br)c3)n2)n1    0 (no)
19  Cc1ccc(S(=O)(=O)N2CCCC2)cc1-c1nnc(-c2ccc(Cl)cc2)o1   1 (yes)
20      Cc1ccc2[nH]c(C(=O)NC3CCN(C)CC3)cc2c1   1 (yes)
21  C=C(C)CN1CCN(c2cc(C)nc3c(C)c(-c4ccc(Cl)cc4)nn23)CC1    0 (no)
22  Cc1cc2c(cc1S(=O)(=O)N1CCCC1C(=O)NC1CCCCCC1)OC(C)C(=O)N2 (stereo not given)   1 (yes)
23  CCc1ccc(NC(=O)Cn2nc(N3CCOCC3)c3ccccc3c2=O)cc1   1 (yes)
24  COc1ccc(Cl)cc1NS(=O)(=O)c1ccc2c(c1)C(=O)N(C)c1ncccc1O2   1 (yes)
25    O=C1CN(C(=O)Cc2ccc(Cl)cc2)C2(CCCC2)CN1    0 (no)
26  CCCc1sc(NC(=O)Cn2nc3c(cc2=O)CCCC3)nc1C(=O)OC   1 (yes)

# credit: the METLIN SMRT retention time set (Domingo-Almenara et al. 2019)
